So I've got a bunch of proteins here, and I need their Enzyme Activity Endpoint Assay: IgG values.
Target: pooled human IgG (human IgG1, 2, 3 and 4)
Unit ng/µL implied. Number only.

**Query** Look up Enzyme Activity Endpoint Assay: IgG of PRT-525 (protein) MITSVWTKGVTPPAKFTQGEDVFHAPYVANQGWYDITKTFNGKDNLLCGAATAGNMLHWWFDQNKEEIEAYLKKHPEKQKIIFNNQELFDLKAVINTKDSQTNSALFNYFKDKAFPNLSARRLGVFPDLVLDMFINGYYLNVYKTQTTDVNRTYQTKDRRGGIFDAVFTRGVQSKLLTERHDLKNKTLKEISDLIKQELTEGKALGLSHTYANVRINHVINLWGADFDSNGNLEAIYVTDSDTNASIGMKKYFVGVNSAGKVAISAKEIKEDNIGAQVLGLFTLSTGQDIWNQTNLEHHHHHH and report it.
**Result** 0

**Query** Provide only the value of recorded Enzyme Activity Endpoint Assay: IgG for PRT-384 (protein) MVTSVWTKGVTPPTNFTYGEDVLHAPYVANQGWYDITKTFNGKDDLLCGAATAGNMLHWWFDQNKEQIENYLKKHPEKQKINFNGEQMFDVKEAIDTKDSQLDSKLFEYFKEKAFPNLSTKHLGVFPDHVIDMFINGYRLSLTNHGPTPVKRGSKDPRGGIFDAVFTRGDQSKLLTNRHDFKEKTLKEISDLIKQELTEGKALGISHTYANVRINHVINLWGADFDAEGNLEAIYVTDSDSNASIGMKKYFVGVNSNGKVAISAKEIEEDNIGAQVLGLFTLSTGQDIWNQTN
**Result** 1510
